experiment: Inhalation pharmacokinetics in rats; assay type: in vivo, male Wistar rats; settings: male, Wistar, rat, lung, inhaled, 0.1 mg/kg; read-out: Lung t1/2 (converted)
experimental-readout: half-life (h)
Write the number in h without appending the unit.

*Q* Which measured half-life value corresponds to "C[C@H]1CCCCN1c1nnc2ccc(O[C@@H]3CC[C@H](NC(=O)Nc4cc(C(C)(C)C)nn4-c4cnn(CCN(C)C)c4)c4ccccc43)cn12" ?
*A* 10

====

target: human p38δ (Homo sapiens)
pKd: −log10 of the molar value.
experimental-readout: pKd

*Q* Which value of pKd has been reported for "C[C@H]1CCCCN1c1nnc2ccc(O[C@@H]3CC[C@H](NC(=O)Nc4cc(C(C)(C)C)nn4-c4cnn(CCN(C)C)c4)c4ccccc43)cn12" in the records?
*A* < 6.00

====

molecular target: human p38γ (Homo sapiens)
experimental-readout: Kd

*Q* Reported Kd for "C[C@H]1CCCCN1c1nnc2ccc(O[C@@H]3CC[C@H](NC(=O)Nc4cc(C(C)(C)C)nn4-c4cnn(CCN(C)C)c4)c4ccccc43)cn12" : what is it?
*A* > 1 µM

====

target: human p38β (MAPK11) (Homo sapiens)
Sequence (Q15759 whole entry): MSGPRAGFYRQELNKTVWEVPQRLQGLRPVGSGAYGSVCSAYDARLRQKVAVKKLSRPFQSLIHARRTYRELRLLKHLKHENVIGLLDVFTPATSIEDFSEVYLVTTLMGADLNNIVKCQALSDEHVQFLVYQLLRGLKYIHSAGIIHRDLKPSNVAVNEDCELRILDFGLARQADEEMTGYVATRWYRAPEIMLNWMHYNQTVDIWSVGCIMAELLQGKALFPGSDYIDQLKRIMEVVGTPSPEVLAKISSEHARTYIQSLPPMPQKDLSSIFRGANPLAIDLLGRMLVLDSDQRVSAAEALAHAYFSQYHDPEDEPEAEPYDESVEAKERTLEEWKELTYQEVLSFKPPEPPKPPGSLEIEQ
experimental-readout: pIC50
// pIC50 is dimensionless: -log10 of concentration (M)

*Q* # lookup: pIC50 of "C[C@H]1CCCCN1c1nnc2ccc(O[C@@H]3CC[C@H](NC(=O)Nc4cc(C(C)(C)C)nn4-c4cnn(CCN(C)C)c4)c4ccccc43)cn12"
*A* 9.70

====

test: Inhalation pharmacokinetics in rats; format: in vivo, male Wistar rats; conditions: male, Wistar, rat, plasma, inhaled or intranasal; 1.0 mg/kg
experimental-readout: Cmax (ng/mL)
Give your result in ng/mL as a bare value.

*Q* Please report the recorded Cmax for "C[C@H]1CCCCN1c1nnc2ccc(O[C@@H]3CC[C@H](NC(=O)Nc4cc(C(C)(C)C)nn4-c4cnn(CCN(C)C)c4)c4ccccc43)cn12" .
*A* 20.6

====

assay: Inhalation pharmacokinetics in rats; format: in vivo, male Wistar rats; conditions: male, Wistar, rat, plasma, inhaled or intranasal; 1.0 mg/kg; read-out: Plasma AUClast
experimental-readout: AUC(0-t) (ng·h/mL)
Report the value in ng·h/mL with no unit label.

*Q* Please look up its AUC(0-t): "C[C@H]1CCCCN1c1nnc2ccc(O[C@@H]3CC[C@H](NC(=O)Nc4cc(C(C)(C)C)nn4-c4cnn(CCN(C)C)c4)c4ccccc43)cn12"
*A* 60.1

====

experiment: Inhalation pharmacokinetics in rats; format: in vivo, male Wistar rats; details: male, Wistar, rat, lung/plasma, inhaled; at the two dose levels (0.1 and 1 mg/kg); read-out: lung/plasma ratio (AUClast lung / AUClast plasma)
experimental-readout: Kp

*Q* Requested field: Kp. Item: C[C@H]1CCCCN1c1nnc2ccc(O[C@@H]3CC[C@H](NC(=O)Nc4cc(C(C)(C)C)nn4-c4cnn(CCN(C)C)c4)c4ccccc43)cn12 [CHF6297]
*A* ~6000

====

Biological target: human p38γ (Homo sapiens, UniProt P53778)
Construct: GST; purchased Invitrogen
Sequence (P53778 whole entry): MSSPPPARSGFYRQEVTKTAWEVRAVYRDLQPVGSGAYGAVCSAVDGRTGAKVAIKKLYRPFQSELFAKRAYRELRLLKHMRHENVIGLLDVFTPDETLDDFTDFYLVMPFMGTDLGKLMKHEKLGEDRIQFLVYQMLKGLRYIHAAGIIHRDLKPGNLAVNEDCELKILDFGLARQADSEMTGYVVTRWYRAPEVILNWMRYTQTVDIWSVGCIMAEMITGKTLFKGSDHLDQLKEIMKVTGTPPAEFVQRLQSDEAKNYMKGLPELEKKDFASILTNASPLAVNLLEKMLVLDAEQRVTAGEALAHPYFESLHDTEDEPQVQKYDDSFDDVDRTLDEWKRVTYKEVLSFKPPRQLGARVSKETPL
Assay: AlphaScreen kinase activity assay, human p38γ
Type: biochemical
Conditions: n = 3, read-out: IC50 (mean ± s.d.)
Method: The inhibitory activity of CHF6297 was determined using an AlphaScreen® (PerkinElmer)-based kinase activity assay as previously described ([Armani et al., 2022]). […] Detection was performed by measuring luminescence following the addition of AlphaScreen donor beads (PerkinElmer, 6765300) and Protein A AlphaScreen acceptor beads (PerkinElmer, 6760137), both at a final concentration of 20 μg/mL. IC50 values were determined from concentration–response curves. […]
experimental-readout: IC50 (nM)
Reply with just the number (in nM).

*Q* IC50 lookup needed for C[C@H]1CCCCN1c1nnc2ccc(O[C@@H]3CC[C@H](NC(=O)Nc4cc(C(C)(C)C)nn4-c4cnn(CCN(C)C)c4)c4ccccc43)cn12 [CHF6297] , thanks.
*A* 945

====

target: UniProt:P70618
Sequence (P70618 whole entry): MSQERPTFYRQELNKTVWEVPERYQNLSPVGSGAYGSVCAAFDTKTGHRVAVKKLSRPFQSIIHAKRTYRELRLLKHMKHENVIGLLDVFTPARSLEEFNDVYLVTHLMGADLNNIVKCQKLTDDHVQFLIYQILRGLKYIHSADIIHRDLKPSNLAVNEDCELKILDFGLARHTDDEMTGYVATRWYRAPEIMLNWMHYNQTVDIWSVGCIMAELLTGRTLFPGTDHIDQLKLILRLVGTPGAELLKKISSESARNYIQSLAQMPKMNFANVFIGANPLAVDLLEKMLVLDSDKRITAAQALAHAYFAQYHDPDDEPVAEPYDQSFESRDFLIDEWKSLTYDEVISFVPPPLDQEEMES
experimental-readout: pIC50
The read-out pIC50 is expressed as -log10 of concentration in moles per litre.

*Q* Value wanted: pIC50 (UniProt:P70618) of entry "C[C@H]1CCCCN1c1nnc2ccc(O[C@@H]3CC[C@H](NC(=O)Nc4cc(C(C)(C)C)nn4-c4cnn(CCN(C)C)c4)c4ccccc43)cn12"
*A* 9.30

====

biological target: human p38δ (Homo sapiens, UniProt O15264)
Sequence (O15264 whole entry): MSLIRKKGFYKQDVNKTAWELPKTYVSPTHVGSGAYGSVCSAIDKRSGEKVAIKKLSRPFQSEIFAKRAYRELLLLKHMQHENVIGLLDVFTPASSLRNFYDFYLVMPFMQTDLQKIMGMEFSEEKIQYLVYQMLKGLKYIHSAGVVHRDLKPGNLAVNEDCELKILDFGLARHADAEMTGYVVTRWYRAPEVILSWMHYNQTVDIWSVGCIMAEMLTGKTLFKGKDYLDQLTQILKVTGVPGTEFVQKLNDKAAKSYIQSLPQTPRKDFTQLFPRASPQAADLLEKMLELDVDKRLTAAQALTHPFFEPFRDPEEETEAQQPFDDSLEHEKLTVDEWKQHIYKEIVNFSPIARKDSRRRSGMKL
experimental-readout: IC50

*Q* Which IC50 is listed for "C[C@H]1CCCCN1c1nnc2ccc(O[C@@H]3CC[C@H](NC(=O)Nc4cc(C(C)(C)C)nn4-c4cnn(CCN(C)C)c4)c4ccccc43)cn12" ?
*A* > 1000 nM

====

Test: Inhalation pharmacokinetics in rats
Type: in vivo, male Wistar rats
Conditions: male, Wistar, rat, lung, inhaled or intranasal, 0.1 mg/kg; read-out: Lung t1/2 (converted)
Description: Inhalation pharmacokinetics (PK) of CHF6297 as micronised dry powder blended with lactose 20% w/w was investigated in male Wistar rats at 2 dose levels (0.1 and 1 mg/kg) using the nose-only inhalation delivery system (Figure 8). For each PK study, 21 rats were placed in suitable plastic restrainers and connected to the inhalation tower. Inhalation system parameters were set to achieve a nominal dose of 0.1 mg/kg and 1 mg/kg in 30 min of exposure. […]
experimental-readout: half-life (h)
Provide only the numeric value, understood in h.

*Q* Item under review: "C[C@H]1CCCCN1c1nnc2ccc(O[C@@H]3CC[C@H](NC(=O)Nc4cc(C(C)(C)C)nn4-c4cnn(CCN(C)C)c4)c4ccccc43)cn12" . Reported half-life?
*A* 10.2
